Below is a list of entries, each paired with its recorded Kd value.
target: D-VEGF-A (8-109), synthetic mirror-image protein (Homo sapiens (Human)) (UniProt P15692); assay: SPR; L-peptidic compound on D-VEGF-A
Sequence (P15692 214-315 limits assumed, form in doubt): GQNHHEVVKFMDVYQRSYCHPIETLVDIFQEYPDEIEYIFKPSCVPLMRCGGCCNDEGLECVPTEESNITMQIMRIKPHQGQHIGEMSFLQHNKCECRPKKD
Just the number in nM, nothing appended.

Record LLKNAKEDAIAELKKAGITEDHVFNFINHAPYVSHVNGLKNAILKAHA (designed binder) [1.1 (-tidqw) (L-peptidic)] , field Kd: 450

Attention now turns to another entry.
Lookup result for 1.1 (L-peptidic) (designed binder) TIDQWLLKNAKEDAIAELKKAGITEDHVFNFINHAPYVSHVNGLKNAILKAHA ; measured Kd: 140
